Each recorded value in this set is attributed to patent US20260364089A1.

# key: entry, value: IC50
- subject of test: KRas G12V (Homo sapiens, UniProt P01116, G12V)
- Construct: Biotinylated KRas G12V (aa 1-169) loaded with GDP nucleotide; biotin (biotinylated)
- Sequence (P01116 1-169 G12V): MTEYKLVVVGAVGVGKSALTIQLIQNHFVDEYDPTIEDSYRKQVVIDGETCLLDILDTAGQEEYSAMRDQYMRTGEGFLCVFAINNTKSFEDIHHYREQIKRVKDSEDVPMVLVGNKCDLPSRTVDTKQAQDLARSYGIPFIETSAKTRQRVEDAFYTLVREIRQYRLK
- assay overview: SOS1-Catalyzed Nucleotide Exchange Assay, KRas G12V (Method 2)
- Type: biochemical
- cond: Method 2, B; 5 nM KRas G12V (aa 1-169, GDP-loaded), 50 nM SOS1; read-out: KRas G12V IC50 (nM) (Method 2, B)
- Method: KRas G12V [Method 2]: Compounds were pre-dispensed via Echo liquid handling (acoustic, touch-free) to generate assay ready plates (ARP). More precisely, a 10-point concentration response curve for each compound was prepared with appropriate top concentration (1 μM, 10 μM, 100 μM). […] The reaction was allowed to proceed for 60-90 minutes after which the plate was read on a plate reader. […]

[
  {
    "compound": "Nc1cc2c3c(c(F)ccc3c1)CCCC(=O)NCC1COCCN(C1)c1nc(OC[C@@]34CCCN3C[C@H](F)C4)nc3c(F)c-2ncc13 (stereo partly drawn) [Compound 192a]",
    "IC50": "100 to 1000 nM"
  },
  {
    "compound": "Nc1cc2c3c(c(F)ccc3c1)CCCC(=O)NCCC1CCCN(C1)c1nc(OC[C@@]34CCCN3C[C@H](F)C4)nc3c(F)c-2ccc13 (stereo partly drawn) [Compound 190a]",
    "IC50": "100 to 1000 nM"
  },
  {
    "compound": "CN(C)CC1(COc2nc3c4ccc(c(F)c4n2)-c2c(c(Cl)cc4[nH]ncc24)CCCCC(=O)NCCC2CCCN3C2)CC1 (single isomer, unassigned) [Compound 197b]",
    "IC50": "≤ 100 nM"
  },
  {
    "compound": "O=C1CCCc2c(F)ccc3cccc(c23)-c2ncc3c(nc(OC[C@@]45CCCN4C[C@H](F)C5)nc3c2F)N2CCCC(CCN1)C2 (stereo partly drawn) [Compound 170a]",
    "IC50": "≤ 100 nM"
  },
  {
    "compound": "Nc1cc(Cl)c2c(c1)-c1ncc3c(nc(OCC4(CN5CCOCC5)CC4)nc3c1F)N1CCCC(CCNC(=O)CCCC2)C1 (stereo not drawn) [Compound 177]",
    "IC50": "100 to 1000 nM"
  },
  {
    "compound": "O=C1CCCCc2c(Cl)cc3[nH]ncc3c2-c2ncc3c(nc(OC[C@@]45CCCN4C[C@H](F)C5)nc3c2F)N2CCCC(CCN1)C2 (stereo partly drawn) [Compound 196a]",
    "IC50": "≤ 100 nM"
  }
]
